- assayed target: Estrogen receptor beta (Homo sapiens)
- run description: qHTS assay to identify small molecule agonists of the estrogen receptor beta (ER-beta) signaling pathway (AID 1259377)
- stated conditions: ER-beta-UAS-bla HEK293T, beta-lactamase FRET ratio, 16 h; series mostly up to 92.4 µM
Records with an inconclusive call do not appear. The source made the active and inactive calls. Calls come from the whole dose curve; as a rule, active = well fitted activation curve with a large enough effect in the signal ratio in the repeat runs (not every such curve was filed as active); inconclusive = weak or mixed curves, or effect the other way; inactive = flat fitted curve, though single readings scatter; the % refers to the signal ratio.
metric: outcome

Here is how some molecules turned out for outcome.
Lab note: measured outcome of CC1(C)C(C=C(Cl)Cl)C1C(=O)OC(C#N)c1ccc(F)c(Oc2ccccc2)c1 (configuration not stated) was inactive

Lab note: measured outcome of `Cc1ccc([N+](=O)[O-])[c]2c1[O][Hg]2` was inactive

Lab note: measured outcome of `CNC(=O)CSP(=O)(OC)OC` was inactive

Lab note: measured outcome of `CC1(C)[C@H](/C=C2\CCSC2=O)[C@@H]1C(=O)OCc1coc(Cc2ccccc2)c1` was inactive

Lab note: measured outcome of CN1[C@@H]2CC[C@H]1CC(O)C2 (some centres not stated) was inactive

We now examine a further molecule.
Lab note: measured outcome of CCC(C)c1cccc(C(C)CC)c1O (configuration not stated) was inactive

---

- assayed target: Thyrotropin-releasing hormone receptor (Homo sapiens) (UniProt P34981)
- Sequence (P34981 whole entry, looked up): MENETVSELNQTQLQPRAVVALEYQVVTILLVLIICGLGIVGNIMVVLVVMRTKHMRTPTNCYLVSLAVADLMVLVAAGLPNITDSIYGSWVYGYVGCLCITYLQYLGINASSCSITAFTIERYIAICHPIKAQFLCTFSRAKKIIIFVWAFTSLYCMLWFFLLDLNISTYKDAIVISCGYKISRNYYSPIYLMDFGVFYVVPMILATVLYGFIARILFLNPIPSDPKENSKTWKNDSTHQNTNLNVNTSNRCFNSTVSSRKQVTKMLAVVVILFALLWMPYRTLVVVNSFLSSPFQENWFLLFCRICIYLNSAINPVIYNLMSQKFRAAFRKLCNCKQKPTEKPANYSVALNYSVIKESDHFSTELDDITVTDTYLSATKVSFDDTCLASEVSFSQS
- run description: qHTS assay to identify small molecule antagonists of the thyrotropin-releasing hormone receptor (TRHR) signaling pathway (AID 1346877)
- stated conditions: TRHR-HEK293, TRH-induced calcium fluorescence, antagonist mode; series mostly up to 51.3 µM
The source made the active and inactive calls. Calls come from the whole dose curve; as a rule, active = well fitted inhibition curve with a large enough effect in the repeat runs (not every such curve was filed as active); inconclusive = weak or mixed curves; inactive = flat fitted curve, though single readings scatter.
Outcomes you can answer with include only these: yes = active, no = inactive

Before answering, review these 5 worked examples.
## Input State the result this test recorded for CN1[C@@H]2CC[C@H]1CC(O)C2 (stereo partly drawn) .
## Output no

## Input State the result this test recorded for `Clc1ccc(C(Cl)(Cl)Cl)cc1Cl` .
## Output no

## Input State the result this test recorded for `Oc1cc(Cl)c(Cl)c(Cl)c1Cl` .
## Output no

## Input State the result this test recorded for `ClC(Cl)C(Cl)(Cl)Cl` .
## Output no

## Input State the result this test recorded for `BrCC(Br)(Br)Br` .
## Output yes

New cases:
## Input State the result this test recorded for `CCNS(=O)(=O)C(F)(F)C(F)(F)C(F)(F)C(F)(F)C(F)(F)C(F)(F)C(F)(F)C(F)(F)F` .
## Output no

## Input State the result this test recorded for `COP(=S)(OC)Oc1ccc([N+](=O)[O-])c(C)c1` .
## Output no

## Input State the result this test recorded for `Cc1nn(-c2cc(NS(C)(=O)=O)c(Cl)cc2Cl)c(=O)n1C(F)F` .
## Output no

## Input State the result this test recorded for `C=CCBr` .
## Output no

## Input State the result this test recorded for `C[C@]12C/C(=C/O)C(=O)C[C@@H]1CC[C@@H]1[C@@H]2CC[C@@]2(C)[C@H]1CC[C@]2(C)O` .
## Output no

## Input State the result this test recorded for CCC(C)c1cccc(C(C)CC)c1O (stereo not drawn) .
## Output no

## Input State the result this test recorded for `N#Cc1ccc(N(CC(N)=O)CC(F)(F)F)cc1C(F)(F)F` .
## Output no

## Input State the result this test recorded for `CCOP(=O)(OCC)Oc1nc(Cl)c(Cl)cc1Cl` .
## Output no

## Input State the result this test recorded for `CC1(C)[C@H](/C=C2\CCSC2=O)[C@@H]1C(=O)OCc1coc(Cc2ccccc2)c1` .
## Output no

## Input State the result this test recorded for `CC(C)N(C(=O)CCl)c1ccccc1` .
## Output no

## Input State the result this test recorded for CC1(C)C(C=C(Cl)Cl)C1C(=O)OC(C#N)c1ccc(F)c(Oc2ccccc2)c1 (stereo not drawn) .
## Output no

## Input State the result this test recorded for `C=C(C)C(=O)[O][Sn]([CH2]CCC)([CH2]CCC)[CH2]CCC` .
## Output yes

## Input State the result this test recorded for `Oc1ccc([C@H]2CNCc3c2ccc(O)c3O)cc1O` .
## Output no

## Input State the result this test recorded for `c1ccc2nc(N3CCNCC3)ccc2c1` .
## Output no

## Input State the result this test recorded for ClC1(Cl)C2(Cl)C3(Cl)C4(Cl)C(Cl)(Cl)C5(Cl)C3(Cl)C1(Cl)C5(Cl)C24Cl (stereo not drawn) .
## Output no

## Input State the result this test recorded for `CCCCCCC[CH2][Sn]([Cl])([Cl])[CH2]CCCCCCC` .
## Output no

## Input State the result this test recorded for `O.O.O.O=C([O-])[C@H]([O-])[C@@H]([O-])C(=O)[O-].O=C([O-])[C@H]([O-])[C@@H]([O-])C(=O)[O-].[K+].[K+].[Sb+3].[Sb+3]` .
## Output no

## Input State the result this test recorded for `Cc1cnc2c(C(=O)O)c(Cl)ccc2c1` .
## Output no

## Input State the result this test recorded for CC(Cc1ccc(OCC(=O)O)cc1)NCC(O)c1csc(C(F)(F)F)n1 (stereo not drawn) .
## Output no

## Input State the result this test recorded for `c1ccc(N=NNc2ccccc2)cc1` .
## Output no

## Input State the result this test recorded for `C=CC(=O)[O][Sn]([CH2]CCC)([CH2]CCC)[CH2]CCC` .
## Output yes

---

- run description: qHTS RealTime-Glo MT Cell Viability Assay in HEK293 cells - 8 hour (AID 1224887); note: nearly all actives have a fitted effect of over 50% in size
- stated conditions: RealTime-Glo luminescence; series mostly up to 76.8 µM
Inconclusive results are not listed. Activity calls are given as the source filed them. Calls follow the shape of the dose curve; as a rule, active = well fitted cell-killing curve with a large enough effect in the repeat runs; inconclusive = weak or mixed curves, or effect the other way; inactive = flat fitted curve, though single readings scatter.
Outcomes you can answer with include only these: true (active), false (inactive)

Before answering, review these 3 worked examples.
## Input State the result this test recorded for `Nc1ccc(Cl)cc1C(=O)c1ccccc1F` .
## Output false

## Input State the result this test recorded for `COP(=O)(OC)Oc1ccc([N+](=O)[O-])cc1` .
## Output false

## Input State the result this test recorded for `CN/C(=N\[N+](=O)[O-])NCc1cnc(Cl)s1` .
## Output false

New cases:
## Input State the result this test recorded for `Cc1ccn2nc(S(=O)(=O)Nc3c(F)cccc3F)nc2n1` .
## Output false

## Input State the result this test recorded for `Brc1cccc(-c2ccccc2)c1` .
## Output false

## Input State the result this test recorded for CCn1cc[n+](C)c1 (tested in a mixture with another compound) .
## Output false

## Input State the result this test recorded for `Cc1cc2c3c(c1)C(c1ccccc1)=N[C@@H](NC(=O)c1ccncc1)C(=O)N3CC2` .
## Output false

## Input State the result this test recorded for `Nc1ccccc1-c1ccccc1` .
## Output false

## Input State the result this test recorded for `CCN1CCC2(CC1)COc1cc3c(cc12)N(C(=O)c1ccc(-c2ccc(-c4nnc(C)o4)cc2C)cc1)CC3` .
## Output true

## Input State the result this test recorded for `c1ccc(Nc2ccc(Nc3ccccc3)cc2)cc1` .
## Output true

## Input State the result this test recorded for `O=[N+]([O-])c1cccc2cccc([N+](=O)[O-])c12` .
## Output false

## Input State the result this test recorded for `CCCCN(CCCC)C(=S)S` .
## Output false

---

- run description: qHTS assay for small molecules that induce genotoxicity in human embryonic kidney cells expressing luciferase-tagged ATAD5 - cell viability (AID 651634); note: nearly all actives have a fitted effect of over 25% in size
- stated conditions: HEK293T ATAD5-luc cells viability, CellTiter-Fluor, 15.5 h; series mostly up to 83.3 µM
Inconclusive results are not listed. Calls of active or inactive are those of the source. Calls follow the shape of the full dose curve.
Outcomes you can answer with include only these: active, inactive

Before answering, review these 5 worked examples.
## Input State the result this test recorded for `CC[C@]1(O)CC[C@H]2[C@@H]3CCC4=CCCC[C@@H]4[C@H]3CC[C@@]21C` .
## Output active

## Input State the result this test recorded for `O=[N+]([O-])c1cccc2cccc([N+](=O)[O-])c12` .
## Output inactive

## Input State the result this test recorded for CC(Cl)CCl (stereo not drawn) .
## Output inactive

## Input State the result this test recorded for `C=CCBr` .
## Output inactive

## Input State the result this test recorded for `O=c1[nH]c(Cl)c(Cl)cc1Cl` .
## Output inactive

New cases:
## Input State the result this test recorded for `CSC(=O)c1c(C(F)F)nc(C(F)(F)F)c(C(=O)SC)c1CC(C)C` .
## Output inactive

## Input State the result this test recorded for `C1=CCC=C1` .
## Output inactive

## Input State the result this test recorded for CN1[C@@H]2CC[C@H]1CC(O)C2 (stereo partly drawn) .
## Output inactive

## Input State the result this test recorded for `COc1c2c(cc3c1OCO3)CCN(C)C2` .
## Output inactive

## Input State the result this test recorded for `CCCN` .
## Output inactive

## Input State the result this test recorded for `O=C(O)[C@H](O)[C@@H](O)C(=O)O` .
## Output inactive

## Input State the result this test recorded for `CC(=O)[O-].CC(=O)[O-].CC(=O)[O-].[Cr+3]` .
## Output inactive

## Input State the result this test recorded for `[O]=[Cr][O][Cr]=[O]` .
## Output inactive
